# test-name: Shear cell testing with Ring Shear Tester RST-XS
# Assay type: physicochemical
# condition-context: Pre-shear stress 1000 PA, 30 mL shear cell; monohydrochloride
Counter-ions that a name gives are not always drawn.
Quick reference for Consolidation stress (σ1) among some compounds
The response must be a number in PA with no trailing unit.

>>> result_value("CC(C)NC[C@@H](C(=O)N1CCN(c2ncnc3c2[C@H](C)C[C@H]3O)CC1)c1ccc(Cl)cc1 [Composition 140910418, ipatasertib monohydrochloride]")
1730

Moving on to the next compound.
Look up Consolidation stress (σ1): CC(C)NC[C@@H](C(=O)N1CCN(c2ncnc3c2[C@H](C)C[C@H]3O)CC1)c1ccc(Cl)cc1 [BS1506SA01, ipatasertib monohydrochloride]
1725

====

# test-name: Particle size distribution (d10, d50, d90) by laser diffraction
# Type: physicochemical
# condition-context: spray dried amorphous ipatasertib monohydrochloride powder
Where a name gives a salt, the structure may show the parent alone.
Quick reference for Particle size d50 among some compounds
The response must be a number in μm with no trailing unit.

Look up Particle size d50: CC(C)NC[C@@H](C(=O)N1CCN(c2ncnc3c2[C@H](C)C[C@H]3O)CC1)c1ccc(Cl)cc1 [Composition 141210424, ipatasertib monohydrochloride]
27

Look up Particle size d50: CC(C)NC[C@@H](C(=O)N1CCN(c2ncnc3c2[C@H](C)C[C@H]3O)CC1)c1ccc(Cl)cc1 [Composition 140110410, ipatasertib monohydrochloride]
23

Look up Particle size d50: CC(C)NC[C@@H](C(=O)N1CCN(c2ncnc3c2[C@H](C)C[C@H]3O)CC1)c1ccc(Cl)cc1 [Composition 140110408, ipatasertib monohydrochloride]
26

Look up Particle size d50: CC(C)NC[C@@H](C(=O)N1CCN(c2ncnc3c2[C@H](C)C[C@H]3O)CC1)c1ccc(Cl)cc1 [Composition 130710450, ipatasertib monohydrochloride]
40

Look up Particle size d50: CC(C)NC[C@@H](C(=O)N1CCN(c2ncnc3c2[C@H](C)C[C@H]3O)CC1)c1ccc(Cl)cc1 [Composition 140210414, ipatasertib monohydrochloride]
53

====

# test-name: Bulk density, tapped density and Carr index
# Assay type: physicochemical
# condition-context: spray dried amorphous ipatasertib monohydrochloride powder; monohydrochloride
Counter-ions that a name gives are not always drawn.
Response field label takes y when Bulk density is strictly below 0.4 gcm^−3 and n in all other cases.

>>> label_class("CC(C)NC[C@@H](C(=O)N1CCN(c2ncnc3c2[C@H](C)C[C@H]3O)CC1)c1ccc(Cl)cc1 [Composition 140110402, ipatasertib monohydrochloride]")
"n"
>>> label_class("CC(C)NC[C@@H](C(=O)N1CCN(c2ncnc3c2[C@H](C)C[C@H]3O)CC1)c1ccc(Cl)cc1 [Composition 140110411, ipatasertib monohydrochloride]")
"y"
>>> label_class("CC(C)NC[C@@H](C(=O)N1CCN(c2ncnc3c2[C@H](C)C[C@H]3O)CC1)c1ccc(Cl)cc1 [Composition 140210412, ipatasertib monohydrochloride]")
"n"
>>> label_class("CC(C)NC[C@@H](C(=O)N1CCN(c2ncnc3c2[C@H](C)C[C@H]3O)CC1)c1ccc(Cl)cc1 [Composition 140110404, ipatasertib monohydrochloride]")
"n"
>>> label_class("CC(C)NC[C@@H](C(=O)N1CCN(c2ncnc3c2[C@H](C)C[C@H]3O)CC1)c1ccc(Cl)cc1 [Composition 140110407, ipatasertib monohydrochloride]")
"y"

Check if Bulk density falls below 0.4 gcm^−3 for CC(C)NC[C@@H](C(=O)N1CCN(c2ncnc3c2[C@H](C)C[C@H]3O)CC1)c1ccc(Cl)cc1 [Composition 140110410, ipatasertib monohydrochloride] .
y

Check if Bulk density falls below 0.4 gcm^−3 for CC(C)NC[C@@H](C(=O)N1CCN(c2ncnc3c2[C@H](C)C[C@H]3O)CC1)c1ccc(Cl)cc1 [Composition 140910420, ipatasertib monohydrochloride] .
y

Check if Bulk density falls below 0.4 gcm^−3 for CC(C)NC[C@@H](C(=O)N1CCN(c2ncnc3c2[C@H](C)C[C@H]3O)CC1)c1ccc(Cl)cc1 [Composition 140110403, ipatasertib monohydrochloride] .
y

Check if Bulk density falls below 0.4 gcm^−3 for CC(C)NC[C@@H](C(=O)N1CCN(c2ncnc3c2[C@H](C)C[C@H]3O)CC1)c1ccc(Cl)cc1 [Composition 141210422, ipatasertib monohydrochloride] .
y

====

# test-name: Particle size distribution (d10, d50, d90) by laser diffraction
# Type: physicochemical
# condition-context: spray-dried amorphous ipatasertib monohydrochloride, rotary wheel atomizer
Where a name gives a salt, the structure may show the parent alone.
assay-endpoint: Particle size d50 (μm)
The response must be a number in μm with no trailing unit.

Example entries begin here.
>>> result_value("CC(C)NC[C@@H](C(=O)N1CCN(c2ncnc3c2[C@H](C)C[C@H]3O)CC1)c1ccc(Cl)cc1 [BS1506SA08, ipatasertib monohydrochloride]")
34
>>> result_value("CC(C)NC[C@@H](C(=O)N1CCN(c2ncnc3c2[C@H](C)C[C@H]3O)CC1)c1ccc(Cl)cc1 [BS1506SA05, ipatasertib monohydrochloride]")
33
>>> result_value("CC(C)NC[C@@H](C(=O)N1CCN(c2ncnc3c2[C@H](C)C[C@H]3O)CC1)c1ccc(Cl)cc1 [BS1506SA06, ipatasertib monohydrochloride]")
32
>>> result_value("CC(C)NC[C@@H](C(=O)N1CCN(c2ncnc3c2[C@H](C)C[C@H]3O)CC1)c1ccc(Cl)cc1 [BS1506SA07, ipatasertib monohydrochloride]")
32

Moving on to the next compound.
Look up Particle size d50: CC(C)NC[C@@H](C(=O)N1CCN(c2ncnc3c2[C@H](C)C[C@H]3O)CC1)c1ccc(Cl)cc1 [BS1506SA02, ipatasertib monohydrochloride]
31

====

# test-name: Bulk density, tapped density and Carr index
# Type: physicochemical
# condition-context: spray dried amorphous ipatasertib monohydrochloride powder; monohydrochloride
Counter-ions that a name gives are not always drawn.
assay-endpoint: Tapped density
Note: state the figure and append the unit.

Example entries begin here.
>>> result_value("CC(C)NC[C@@H](C(=O)N1CCN(c2ncnc3c2[C@H](C)C[C@H]3O)CC1)c1ccc(Cl)cc1 [Composition 140110403, ipatasertib monohydrochloride]")
"0.52 gcm^−3"
>>> result_value("CC(C)NC[C@@H](C(=O)N1CCN(c2ncnc3c2[C@H](C)C[C@H]3O)CC1)c1ccc(Cl)cc1 [Composition 140110407, ipatasertib monohydrochloride]")
"0.43 gcm^−3"
>>> result_value("CC(C)NC[C@@H](C(=O)N1CCN(c2ncnc3c2[C@H](C)C[C@H]3O)CC1)c1ccc(Cl)cc1 [Composition 130810454, ipatasertib monohydrochloride]")
"0.61 gcm^−3"
>>> result_value("CC(C)NC[C@@H](C(=O)N1CCN(c2ncnc3c2[C@H](C)C[C@H]3O)CC1)c1ccc(Cl)cc1 [Composition 140910416, ipatasertib monohydrochloride]")
"0.55 gcm^−3"

Moving on to the next molecule.
Look up Tapped density: CC(C)NC[C@@H](C(=O)N1CCN(c2ncnc3c2[C@H](C)C[C@H]3O)CC1)c1ccc(Cl)cc1 [Composition 140110402, ipatasertib monohydrochloride]
0.60 gcm^−3

====

Quick reference for Particle size d10 among some compounds
# test-name: Particle size distribution (d10, d50, d90) by laser diffraction
# Format: physicochemical
# condition-context: spray dried amorphous ipatasertib monohydrochloride powder
Structures can show the parent of a compound that is named as a salt.
The response must be a number in μm with no trailing unit.

Look up Particle size d10: CC(C)NC[C@@H](C(=O)N1CCN(c2ncnc3c2[C@H](C)C[C@H]3O)CC1)c1ccc(Cl)cc1 [Composition 140210413, ipatasertib monohydrochloride]
10

Look up Particle size d10: CC(C)NC[C@@H](C(=O)N1CCN(c2ncnc3c2[C@H](C)C[C@H]3O)CC1)c1ccc(Cl)cc1 [Composition 140210412, ipatasertib monohydrochloride]
13

Look up Particle size d10: CC(C)NC[C@@H](C(=O)N1CCN(c2ncnc3c2[C@H](C)C[C@H]3O)CC1)c1ccc(Cl)cc1 [Composition 141210423, ipatasertib monohydrochloride]
10

Look up Particle size d10: CC(C)NC[C@@H](C(=O)N1CCN(c2ncnc3c2[C@H](C)C[C@H]3O)CC1)c1ccc(Cl)cc1 [Composition 140110402, ipatasertib monohydrochloride]
7

Look up Particle size d10: CC(C)NC[C@@H](C(=O)N1CCN(c2ncnc3c2[C@H](C)C[C@H]3O)CC1)c1ccc(Cl)cc1 [Composition 140910418, ipatasertib monohydrochloride]
10

====

# test-name: Bulk density, tapped density and Carr index
# Type: physicochemical
# condition-context: spray dried amorphous ipatasertib monohydrochloride powder; monohydrochloride
Counter-ions that a name gives are not always drawn.
assay-endpoint: Tapped density (gcm^−3)
The response must be a number in gcm^−3 with no trailing unit.

>>> result_value("CC(C)NC[C@@H](C(=O)N1CCN(c2ncnc3c2[C@H](C)C[C@H]3O)CC1)c1ccc(Cl)cc1 [Composition 140110409, ipatasertib monohydrochloride]")
0.39

Look up Tapped density: CC(C)NC[C@@H](C(=O)N1CCN(c2ncnc3c2[C@H](C)C[C@H]3O)CC1)c1ccc(Cl)cc1 [Composition 140110410, ipatasertib monohydrochloride]
0.30

Look up Tapped density: CC(C)NC[C@@H](C(=O)N1CCN(c2ncnc3c2[C@H](C)C[C@H]3O)CC1)c1ccc(Cl)cc1 [Composition 140110401, ipatasertib monohydrochloride]
0.61

Value source: patent US12440492B2
